Reference source for all entries: PubChem BioAssay

- PROTOCOL_TEXT: S. cerevisiae growth modulation with rapamycin, primary screen, strain BY4716, OD600, 96 h (AID 1091); note: test concentration not given here
- DETAILS: higher = more signal, called active from +8 up or from −8 down
Consider the following compounds; for each one, report its z-score.
Answers are plain numbers.

>  <COMPOUND_SMILES>
COc1ccc(CCN2C(=O)[C@@]3(Cc4ccccc42)c2ccccc2C(=O)N(Cc2ccccc2Cl)[C@H]3c2ccc(CO)cc2)cc1

>  <z-score>
-1.24

$$$$
>  <COMPOUND_SMILES>
[N-]=[N+]=NCc1ccccc1C[C@]1(C(=O)NCCN2CCOCC2)N=C(c2ccc(OCCCO)cc2)O[C@H]1c1ccccc1N=[N+]=[N-]

>  <z-score>
2.86

$$$$
>  <COMPOUND_SMILES>
Cc1ccc(S[C@]2(C(=O)NCCN3CCOCC3)CC(=O)N(Cc3cc(C(F)(F)F)cc(C(F)(F)F)c3)[C@@H]2c2ccc(CO)cc2I)cc1

>  <z-score>
14.2

$$$$

Could I get z-score for every one of these entries?
1. C=CCOC(=O)[C@@H]1[C@H]2C(=O)O[C@H](c3ccccc3)[C@H](c3ccccc3)N2[C@H](c2ccc(OCCOC(=O)[C@@H]3C[C@@H]4C(=O)N[C@@H](Cc5ccccc5)C(=O)N4[C@@H]3c3cccc(OCCO)c3)cc2)[C@@]12C(=O)Nc1ccc(I)cc12
2. COC(=O)[C@@]1(Cc2ccccc2)[C@H]2c3cc(C(=O)N4CCCC4)n(C)c3C[C@H]2CN1C(=O)c1ccccc1
3. COCC1=C2[C@@H](CCc3ccccc3)OB(O)C[C@@H]2[C@@H]2C(=O)N(Cc3ccccc3)C(=O)[C@@H]2C1

1. 4.55
2. 0.0928
3. -0.37

---

Consider the following compounds; for each one, report its composite z-score.
- TESTED_SYSTEM: Calmodulin-1 (Homo sapiens) (UniProt P0DP23)
- PROTOCOL_TEXT: calcium-bound CALM1 binders on microarrays, profiling panel, artefact control for SMM control-protein annotation, biochemical, small-molecule microarray, Cy5-labelled CALM1, plus calcium (AID 1112);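 note: score merges spot fluorescence with signal to noise from triplicate slides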
- DETAILS: Cy5-CALM1 binding fluorescence, higher = more signal
Numbers only.

>  <COMPOUND>
COC(=O)[C@@]1(Cc2ccccc2)[C@H]2c3cc(C(=O)N4CCCC4)n(C)c3C[C@H]2CN1C(=O)c1ccccc1

>  <REPORTED_PROPERTY>
composite z-score

>  <RESULT_VALUE>
0.961

$$$$
>  <COMPOUND>
CCOC(=O)C1=C[C@@H](C(C)C)N(S(=O)(=O)c2ccc(C)cc2)[C@H]1c1ccc(C(C)C)cc1

>  <REPORTED_PROPERTY>
composite z-score

>  <RESULT_VALUE>
-0.144

$$$$

Moving on to the next compound.
composite z-score for Cc1ccccc1C(O)C1C=CC2C(=O)N(C)C(=O)C2N1N1CCCCC1 (stereo not drawn) ? 0.413

---

- PROTOCOL_TEXT: PSAC antagonists in infected red cells, primary screen, cell-based, P. falciparum Indochina, OD700, 1 h (AID 1154)
- DETAILS: P. falciparum Indochina infected RBC osmotic lysis, called active from +8 up or from −8 down
The source made the active and inactive calls.
Parameter call: string, one of YES for active, NO for inactive

>  <COMPOUND>
O=C1OCCC=C[C@H]2OC34C=CCN(Cc5ccccc5)C(=O)[C@H]3N(CCCCCO)C(=O)[C@@H]4C12 (some centres undefined)

>  <LABEL_VALUE>
NO

$$$$
>  <COMPOUND>
COc1ccc(NN2C(C(O)c3ccc(OC)c(OCc4ccccc4)c3)C=CC3C(=O)N(C4CCCCC4)C(=O)C32)cc1 (centres undefined)

>  <LABEL_VALUE>
NO

$$$$
>  <COMPOUND>
C=CCC(OC(C)=O)[C@@H]1[C@@H](N(Cc2cc3ccccc3o2)C(=O)c2ccc(C)cc2)c2cc(OCCCO)ccc2N1C(=O)c1ccc2ccccc2c1 (some centres undefined)

>  <LABEL_VALUE>
NO

$$$$
>  <COMPOUND>
COc1ccc([Si](C)(C)[C@@H]2[C@@H](CC(=O)N(CCO)Cc3ccccc3)O[C@]3(C(=O)N(C)c4ccccc43)[C@H]2C)cc1

>  <LABEL_VALUE>
YES

$$$$
>  <COMPOUND>
CCCNC(=O)[C@@]1(c2ccc([N+](=O)[O-])cc2)CC(=O)N(CC23CC4CC(CC(C4)C2)C3)[C@@H]1c1ccc(CO)cc1

>  <LABEL_VALUE>
NO

$$$$

Record request — test call for COCCOC(=O)N1C(=O)[C@@]2(c3cc(C#CC4=CCCCC4)ccc31)[C@H](C(=O)N1CCc3cc(OC)c(OC)cc3C1)[C@H]1C(=O)O[C@H](c3ccccc3)[C@H](c3ccccc3)N1[C@@H]2c1ccccc1OCCO NO

Record request — test call for CCOC(=O)C1=C[C@@H](C(C)C)N(S(=O)(=O)c2ccc(C)cc2)[C@H]1c1ccc(C(C)C)cc1 NO

Record request — test call for COc1ccccc1CN1C(=O)c2ccccc2[C@@H](C(=O)NCCN2CCOCC2)[C@@H]1c1ccc(CO)cc1 NO

Record request — test call for COCCOC(=O)N1C(=O)[C@@]2(c3cc(C#Cc4ccc(OC)cc4)ccc31)[C@H](C(=O)N1CCN(c3ncccn3)CC1)[C@H]1C(=O)O[C@H](c3ccccc3)[C@H](c3ccccc3)N1[C@@H]2c1ccc(O)cc1 NO
